Data origin, for the record: paper PMC9352680

Could you please report measured log10 of Kd for the items listed next?
- TARGET OF ASSAY: T1, PUF4 RNA-binding domain (Saccharomyces cerevisiae, UniProt P25339 537-888)
- T1 sequence: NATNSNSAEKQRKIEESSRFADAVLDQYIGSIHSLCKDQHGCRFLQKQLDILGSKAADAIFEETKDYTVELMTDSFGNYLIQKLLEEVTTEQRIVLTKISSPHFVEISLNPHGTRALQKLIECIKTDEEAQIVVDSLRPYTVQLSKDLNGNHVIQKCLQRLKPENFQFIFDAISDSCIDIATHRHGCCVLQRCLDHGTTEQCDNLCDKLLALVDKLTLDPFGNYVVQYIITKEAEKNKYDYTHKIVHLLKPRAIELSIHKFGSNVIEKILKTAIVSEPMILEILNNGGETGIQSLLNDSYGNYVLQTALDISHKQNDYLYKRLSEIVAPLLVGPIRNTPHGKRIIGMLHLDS
- ASSAY: Mg; RNA-MaP; 20 mM Na-HEPES pH 7.4, 30 mM KOAc, 0.75 mM MgCl2, 0.1% Tween-20, 5% glycerol, 0.1 mg/mL BSA, 2 mM DTT; 25 C; 0.0125-409.6 nM protein
- TEST PARAMETERS: tags: N-His6-TEV cleaved; C-SNAP kept, Cy3B-labelled; label: tethered on chip by stalled RNA polymerase
// units: nM (pre-log); metric: Kd; scale: log10

Guide cases for log10 of Kd, answers given:
BINDER	OBSERVABLE	DATA VALUE
Ic_S4_P5E.1_K5.1_C5.1_H5.1_A5.1_[T6A]_[A7T]_F5.1_[T8A]_[T9A]_T5.1 (ssRNA) RNA: UUUGACAACUGAUCGUUCUUUCUUGUAUAUAAAUUCUUUCUCGAUCAGUUGUCUUU	log10 of Kd	0.59
UCUCUUUGUACUUGUUCUCUU (ssRNA) [Ic_S1_P4E.1_K4.1_C4.1_H4.1_A4.1_[T5C]_[A6T]_F4.1_[T8G]_[A9T]_T4.1]	log10 of Kd	1.72
Ib_S2_P4E.1_K4.1_C4.1_H4.1_[G2C]_A4.1_F4.1_[A9T]_T4.1 (ssRNA) RNA: UUUGAUUAAUAUGAUAUCGUUCUUUCUUCUAUAUUUUUCUUUCUCGAUAUCAUAUUAAUCUUU	log10 of Kd	2.99
Id_ii_S2_P5E.2_K5.1_C5.2_[T-1C]_H5.1_A5.1_F5.1_T5.2_[A12C] (ssRNA) RNA: UUUGAUUAAUAUGAUAUCGUUCUUUCUCCUGUAUUAUUAUCUUCUUUCUCGAUAUCAUAUUAAUCUUU	log10 of Kd	0.18
UCUCUUCCUAUAUAUAGCUCUCUU (ssRNA) [Id_ii_S1_P3E.3_K3.2_C3.2_[T-1C]_H3.2_A3.1_F3.1_T3.2_[T9G]_[A10C]]	log10 of Kd	2.99

We next turn to a different binder, shown below.
Task: Given the entry Ic_S4_P4E.1_K4.1_C4.1_H4.1_A4.1_[T5A]_[T7C]_F4.1_[T8C]_[A9T]_T4.1 (ssRNA) RNA: UUUGACAACUGAUCGUUCUUUCUUGUAAACCUUUCUUUCUCGAUCAGUUGUCUUU , report its measured log10 of Kd.
Output: 2.24
